pKi overview
# tgt: Human recombinant CYP2J2 (Homo sapiens, UniProt P51589)
# Sequence (P51589 whole entry): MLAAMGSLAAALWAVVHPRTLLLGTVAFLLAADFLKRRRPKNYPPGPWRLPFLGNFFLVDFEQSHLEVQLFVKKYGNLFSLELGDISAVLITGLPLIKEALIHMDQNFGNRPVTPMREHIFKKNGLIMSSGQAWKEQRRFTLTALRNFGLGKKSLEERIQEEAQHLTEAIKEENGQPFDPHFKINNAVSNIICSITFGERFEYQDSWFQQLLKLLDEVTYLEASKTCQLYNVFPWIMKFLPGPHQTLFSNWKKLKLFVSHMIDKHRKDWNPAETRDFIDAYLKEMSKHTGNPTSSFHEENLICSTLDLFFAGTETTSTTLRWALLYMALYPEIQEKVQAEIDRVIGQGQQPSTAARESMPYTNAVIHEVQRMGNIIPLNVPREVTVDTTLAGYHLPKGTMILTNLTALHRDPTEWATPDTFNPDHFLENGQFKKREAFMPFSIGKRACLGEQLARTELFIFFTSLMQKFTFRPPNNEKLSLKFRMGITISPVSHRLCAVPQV
# assay_notes: Inhibition kinetic study towards CYP2J2 (Lineweaver-Burk and Dixon plots)
# run_conditions: BnXPI 0–8 μM
pKi: −log10 of the molar value.
reported_property: pKi

| compound | tgt | reported_property | assay_value |
| --- | --- | --- | --- |
| O=C(/C=C/C=C/c1ccc2c(c1)OCO2)NCc1ccc(F)cc1 [9l] | Human recombinant CYP2J2 (Homo sapiens, UniProt P51589) | pKi | 7.13 |
| CC(C)CN(CC(C)C)C(=O)/C=C/C=C/c1ccc2c(c1)OCO2 [9k] | Human recombinant CYP2J2 (Homo sapiens, UniProt P51589) | pKi | 6.96 |
| O=C(/C=C/C=C/c1ccc2c(c1)OCO2)N1CCCCC1 [9a] | Human recombinant CYP2J2 (Homo sapiens, UniProt P51589) | pKi | 6.30 |

Data origin, for the record: paper PMC7946002
